Provenance of the data: ChEMBL document CHEMBL1201862

tested on: HCC 2998; assay: NCI tumour cell line growth inhibition, 48 h
Active and inactive are the calls of the source. Rule as the data show it: active = GI50 up to about 1.1 µM and inactive = higher.
Just give me one of these, please: Y for active, N for inactive

[
  {
    "query.smiles": "NCc1ccccc1-c1c2nc(c(-c3ccccc3CN)c3ccc([nH]3)c(-c3ccccc3CN)c3nc(c(-c4ccccc4CN)c4ccc1[nH]4)C=C3)C=C2",
    "cat": "N"
  }
]

Challenge: Recorded test call requested for COc1ccc2/c(=C/c3ccc(N(C)C)cc3)c3cc(-c4ccccc4)[n+](C)n3c2c1
Response given: Y

Challenge: Thanks! And COC(=O)/C=C1/OC(c2ccccc2)=C(Cl)C1=O ?
Response given: N

Challenge: Thanks! And Cc1ncc([N+](=O)[O-])n1CCn1ccnc1[N+](=O)[O-] ?
Response given: N

Challenge: Thanks! And CN(/N=C/c1cccs1)c1ccc([N+](=O)[O-])cc1[N+](=O)[O-] ?
Response given: N

Challenge: Thanks! And NCCCCNOCCCN ?
Response given: N

Challenge: Thanks! And CN(C)CCNC(=O)c1cccc(CO)c1[N+](=O)[O-] ?
Response given: N

---

system: SN12C; assay: NCI tumour cell line growth inhibition, 48 h
Activity calls are given as the source filed them. Cut-off read from the data, not from the text of the source: active = GI50 up to about 1.1 µM and inactive = higher.
Just give me one of these, please: 1 (yes) (active), 0 (no) (inactive)

Reference set (5 entries):
[
  {
    "compound": "COC12c3ccccc3-c3ccccc3C1[C@H]1C(=O)OC(=O)[C@H]12 (some centres undefined)",
    "cat": "0 (no)"
  },
  {
    "compound": "O=[N+]([O-])c1ccc(O)c(/C=N/NC(=S)N2CCCCC2)c1",
    "cat": "0 (no)"
  },
  {
    "compound": "CC(=O)O[C@H]1C#C/C=C\\C#CC[C@@H]2C(=O)N(C(=O)OC(C)(C)C)[C@@H]12",
    "cat": "0 (no)"
  },
  {
    "compound": "CCc1cccc(C)c1NC(=O)C(=O)CC(=O)c1ccc(Cl)s1",
    "cat": "0 (no)"
  },
  {
    "compound": "Cc1cc(Br)ccc1/N=N/c1c(C)nn(-c2ccccc2)c1-c1ccccc1",
    "cat": "0 (no)"
  }
]

Challenge: Recorded test call requested for NCC(O)CNC(=O)c1ccc(-c2ccc(-c3ccc(C(=O)NCC(O)CN)cc3)o2)cc1 (centres undefined)
Response given: 0 (no)

Challenge: Thanks! And CC(C)[Si](OCC1CC(C#N)OC(C)(C)O1)(C(C)C)C(C)C (centres undefined) ?
Response given: 0 (no)

Challenge: Thanks! And O=C(c1ccco1)N(C(=S)OC12CC3CC(CC(C3)C1)C2)c1ccccc1 ?
Response given: 0 (no)

Challenge: Thanks! And O=[N+]([O-])c1ccc(S[C@@H]2[C@H]3c4c(-c5ccccc5)[nH]c(-c5ccccc5)c4[C@@H]2C[C@H]3Cl)cc1 ?
Response given: 0 (no)

Challenge: Thanks! And COc1ccc(N2C(=O)C3c4[nH]c5ccc(C)cc5c4C4CCC(C(C)(C)C)CC4C3C2=O)cc1 (centres undefined) ?
Response given: 0 (no)

Challenge: Thanks! And COc1ccc(S(=O)(=O)Nc2ccccc2C(=O)O)cc1 ?
Response given: 0 (no)

---

test system: SK-OV-3; assay: NCI tumour cell line growth inhibition, 48 h
Activity calls are given as the source filed them. Rule as the data show it: active = GI50 up to about 1.1 µM and inactive = higher.
Just give me one of these, please: active, inactive

Reference set (3 entries):
[
  {
    "compound": "CCOC(=O)C1=C(C)N(NC(=O)Nc2ccccc2)C2(N)N(NC(=O)Nc3ccccc3)C(C)=C(C(=O)OCC)C12C(=O)OCC (stereo not drawn)",
    "cat": "inactive"
  },
  {
    "compound": "COC1(OC)CC2OC1C1N=NN(C(=O)OC(C)(C)C)C21 (stereo not drawn)",
    "cat": "inactive"
  },
  {
    "compound": "O=C1CC2CC3OC3[C@H]3c4cc5c(cc4C(=O)N1C23)OCO5 (stereo partly drawn)",
    "cat": "inactive"
  }
]

Challenge: Recorded test call requested for CC(=O)O[C@H]1C(=O)[C@@]2(C)[C@H]([C@H](OC(=O)c3ccccc3)[C@]3(O)C[C@H](OC(=O)[C@H](O)[C@@H](NC(=O)c4ccc(N(C)C)cc4)c4ccccc4)C(C)=C1C3(C)C)[C@]1(OC(C)=O)CO[C@@H]1C[C@@H]2O
Response given: active
